# subject.of.test: HIV-1 Env of isolate MGRM-F1-015 (subtype F) (HIV-1)
# test: cell-based or functional assay
measurement.type: IC50 (neutralization)

binder	measurement.type	reading
PGT-126 (antibody, V domains shown) VH: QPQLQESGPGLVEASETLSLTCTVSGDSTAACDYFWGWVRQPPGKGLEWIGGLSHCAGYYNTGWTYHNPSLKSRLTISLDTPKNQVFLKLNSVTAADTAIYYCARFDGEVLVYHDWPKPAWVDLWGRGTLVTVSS VL: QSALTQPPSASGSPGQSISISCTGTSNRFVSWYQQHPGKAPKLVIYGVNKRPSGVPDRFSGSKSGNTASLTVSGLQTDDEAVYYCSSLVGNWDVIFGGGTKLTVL	IC50 (neutralization)	> 50 µg/mL
